Entries and their GI50 values follow.
# System: SNB-75
# experiment.notes: NCI tumour cell line growth inhibition, 48 h
The source made the active and inactive calls. Rule as the data show it: active = GI50 up to about 1.1 µM and inactive = higher.

compound: CC(=O)NC1=C(NCCO)C(=O)c2ccccc2C1=O
target.or.test.system: SNB-75
GI50: > 50 µM (inactive)
//
compound: COc1c(C)c(O)c2c(c1C)OC(c1ccccc1)CC2=O (stereo not drawn)
target.or.test.system: SNB-75
GI50: 65 µM (inactive)
//
compound: CC(N)C(=O)OCN1C(=O)C2C3C=CC(C2C1=O)C1C2C(=O)N(COC(=O)C(C)N)C(=O)C2C31 (stereo not drawn)
target.or.test.system: SNB-75
GI50: 25.6 µM (inactive)
//
compound: O=C1c2cccc3cccc(c23)C(=O)N1CCCN1CCN(CCCN2C(=O)c3cccc4cccc(c34)C2=O)CC1
target.or.test.system: SNB-75
GI50: > 100 µM (inactive)
//
compound: CC(O)CCC(=O)c1ccoc1 (stereo not drawn)
target.or.test.system: SNB-75
GI50: 3500 µM (inactive)
//
compound: COC(=O)c1ccccc1C1CN=NC12Cc1c(C)ccc(C)c1C2=O (stereo not drawn)
target.or.test.system: SNB-75
GI50: > 100 µM (inactive)
//
compound: Cc1cc(C(O)CNC(C)CCn2cnc3c2c(=O)n(C)c(=O)n3C)ccc1O (stereo not drawn)
target.or.test.system: SNB-75
GI50: > 100 µM (inactive)
//
compound: O=c1/c(=C/c2ccccc2[N+](=O)[O-])sc2nnc(-c3ccco3)n12
target.or.test.system: SNB-75
GI50: 25.8 µM (inactive)
//
compound: CC(=O)OC1CC2Oc3ccc(C)cc3C(C)(O2)C1=O (stereo not drawn)
target.or.test.system: SNB-75
GI50: 51.1 µM (inactive)
//
compound: Cc1ccc(-c2nc3cc([N+](=O)[O-])ccc3[nH]2)cc1
target.or.test.system: SNB-75
GI50: > 100 µM (inactive)
//
compound: [N-]=[N+]=Nc1ccc(S(=O)(=O)Oc2cc(OS(=O)(=O)c3ccc(N=[N+]=[N-])cc3)cc(OS(=O)(=O)c3ccc(N=[N+]=[N-])cc3)c2)cc1
target.or.test.system: SNB-75
GI50: > 10 µM (inactive)
//
compound: O=C(N/N=C/c1c(-c2ccccc2)no[n+]1[O-])N1CCOCC1
target.or.test.system: SNB-75
GI50: > 100 µM (inactive)
//
compound: CN(C)C(=S)/N=c1\ssc(=S)n1Cc1cccnc1
target.or.test.system: SNB-75
GI50: 1.91 µM (inactive)

###

Each entry below lists one item and its recorded GI50 value.
# System: HOP-18
# experiment.notes: NCI tumour cell line growth inhibition, 48 h
Calls of active or inactive are those of the source. Cut-off read from the data, not from the text of the source: active = GI50 up to about 1.1 µM and inactive = higher.
readout: GI50

compound: CC(O)CCC(=O)c1ccoc1 (configuration not stated)
observed.value: 5150 µM (inactive)
//
compound: CC(=O)Nc1ccc(C(=O)NN2C(=O)C(Cl)/C2=C/c2ccco2)cc1 (configuration not stated)
observed.value: > 100 µM (inactive)
//
compound: CC1CC2C3CCC4=CC(=O)C=CC4(C)C3(F)C(O)CC2(C)C1(O)C(=O)CO.Cc1cc(NS(=O)(=O)c2ccc(/N=N\c3cc(/N=N/c4ccc(S(=O)(=O)Nc5cc(C)nc(C)n5)cc4)c(OC(=O)C(Cl)Cl)c4cccc(NC(=O)C(Cl)Cl)c34)cc2)nc(C)n1
observed.value: 18.8 µM (inactive)
//
compound: COc1ccc2cc1Oc1ccc(cc1)C[C@H]1c3cc(c(OC)cc3CCN1C)Oc1c(OC)c(OC)cc3c1[C@H](C2)N(C)CC3 [FANCHININ]
observed.value: 9.42 µM (inactive)
//
compound: COc1cc(/C=C/c2ccc(/C=C/c3cc(OC)c(OC)c(OC)c3)cc2)cc(OC)c1OC
observed.value: 32.1 µM (inactive)
//
compound: CC(C)CCC[C@@H](C)C1CCC2[C@@H]3CC=C4C[C@@H](OC(=O)CCC(=O)NCC[N+](C)(C)CCCS(=O)(=O)[O-])CC[C@]4(C)C3CC[C@@]21C (some centres not stated)
observed.value: 30.5 µM (inactive)
//
compound: CCc1nc(N)nc(N)c1-c1ccc(Cl)c(N=[N+]=[N-])c1
observed.value: 0.916 µM (active)
